- testSystem: human orexin-2 receptor (Homo sapiens (Human), UniProt O43614)
- Sequence (O43614 whole entry): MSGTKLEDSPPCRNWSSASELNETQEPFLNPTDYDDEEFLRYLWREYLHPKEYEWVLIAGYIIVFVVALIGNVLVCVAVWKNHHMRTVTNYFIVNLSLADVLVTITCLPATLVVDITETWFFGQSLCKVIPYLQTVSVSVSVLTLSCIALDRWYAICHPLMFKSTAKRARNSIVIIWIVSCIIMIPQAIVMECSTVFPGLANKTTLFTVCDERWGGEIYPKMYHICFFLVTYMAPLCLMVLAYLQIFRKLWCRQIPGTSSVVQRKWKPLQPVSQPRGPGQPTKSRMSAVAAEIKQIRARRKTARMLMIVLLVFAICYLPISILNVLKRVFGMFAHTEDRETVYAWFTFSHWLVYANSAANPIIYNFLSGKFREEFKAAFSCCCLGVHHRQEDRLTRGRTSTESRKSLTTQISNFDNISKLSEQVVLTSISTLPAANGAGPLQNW
- test: Intracellular calcium measurement (FLIPR), CHO cells expressing human orexin-2 receptor, 3 nM orexin-A
- Assay type: cell-based
- testParameters: CHO cells expressing human orexin-2 receptor, FLIPR, 3 nM orexin-A; geometric mean if determined several times; read-out: IC50 OX2
measuredProperty: IC50 (nM)

> print(dat)
                               smilesrecord  unitabbreviation  quantitativeresult
1  CCOc1ccccc1-c1noc([C@@H]2CCCN2C(=O)c2cc(OC)c(C)cc2-n2nccn2)n1                nM                   4
2  CCOc1c(F)cccc1-c1noc([C@@H]2CCCN2C(=O)c2cc(C)c(C)cc2-n2nccn2)n1                nM                   5
3  CCOc1ncccc1-c1noc([C@@H]2CCCN2C(=O)c2cc(C#N)ccc2-n2nccn2)n1                nM                 135
4  COc1cc(C(=O)N2CCC[C@H]2c2noc(-c3cccc(Cl)c3C)n2)c(-n2nccn2)cc1C                nM                   1
5  Cc1ccc(-n2nccn2)c(C(=O)N2CCC[C@H]2c2noc(-c3cnc4sccn34)n2)c1                nM                  76
6  Cc1ccc(-n2nccn2)c(C(=O)N2CCC[C@H]2c2noc(-c3cccc4c3OCC4)n2)c1                nM                   3
7  Cc1ccc(-n2nccn2)c(C(=O)N2CCC[C@H]2c2nc(-c3cccc(C)c3C)no2)c1                nM                  13
8  O=C(c1cccc(F)c1-c1ccn[nH]1)N1CCC[C@H]1c1nc(-c2ccccc2OC(F)F)no1                nM                  14
